molecular target: SMARCA4 (Homo sapiens); construct: SMARCA2/SMARCA4 protein degradation selectivity in MV4-11 cells; endogenous in cells; host or cells: MV4-11; test: SMARCA4 Western blot degradation in MV4-11 cells; assay type: cell-based; settings: MV4-11, MV4-11 cells, 24 h; read-out: SMARCA4 MSD MV411 degradation 24 h: average Dmax %
Sequence (P51532 whole entry): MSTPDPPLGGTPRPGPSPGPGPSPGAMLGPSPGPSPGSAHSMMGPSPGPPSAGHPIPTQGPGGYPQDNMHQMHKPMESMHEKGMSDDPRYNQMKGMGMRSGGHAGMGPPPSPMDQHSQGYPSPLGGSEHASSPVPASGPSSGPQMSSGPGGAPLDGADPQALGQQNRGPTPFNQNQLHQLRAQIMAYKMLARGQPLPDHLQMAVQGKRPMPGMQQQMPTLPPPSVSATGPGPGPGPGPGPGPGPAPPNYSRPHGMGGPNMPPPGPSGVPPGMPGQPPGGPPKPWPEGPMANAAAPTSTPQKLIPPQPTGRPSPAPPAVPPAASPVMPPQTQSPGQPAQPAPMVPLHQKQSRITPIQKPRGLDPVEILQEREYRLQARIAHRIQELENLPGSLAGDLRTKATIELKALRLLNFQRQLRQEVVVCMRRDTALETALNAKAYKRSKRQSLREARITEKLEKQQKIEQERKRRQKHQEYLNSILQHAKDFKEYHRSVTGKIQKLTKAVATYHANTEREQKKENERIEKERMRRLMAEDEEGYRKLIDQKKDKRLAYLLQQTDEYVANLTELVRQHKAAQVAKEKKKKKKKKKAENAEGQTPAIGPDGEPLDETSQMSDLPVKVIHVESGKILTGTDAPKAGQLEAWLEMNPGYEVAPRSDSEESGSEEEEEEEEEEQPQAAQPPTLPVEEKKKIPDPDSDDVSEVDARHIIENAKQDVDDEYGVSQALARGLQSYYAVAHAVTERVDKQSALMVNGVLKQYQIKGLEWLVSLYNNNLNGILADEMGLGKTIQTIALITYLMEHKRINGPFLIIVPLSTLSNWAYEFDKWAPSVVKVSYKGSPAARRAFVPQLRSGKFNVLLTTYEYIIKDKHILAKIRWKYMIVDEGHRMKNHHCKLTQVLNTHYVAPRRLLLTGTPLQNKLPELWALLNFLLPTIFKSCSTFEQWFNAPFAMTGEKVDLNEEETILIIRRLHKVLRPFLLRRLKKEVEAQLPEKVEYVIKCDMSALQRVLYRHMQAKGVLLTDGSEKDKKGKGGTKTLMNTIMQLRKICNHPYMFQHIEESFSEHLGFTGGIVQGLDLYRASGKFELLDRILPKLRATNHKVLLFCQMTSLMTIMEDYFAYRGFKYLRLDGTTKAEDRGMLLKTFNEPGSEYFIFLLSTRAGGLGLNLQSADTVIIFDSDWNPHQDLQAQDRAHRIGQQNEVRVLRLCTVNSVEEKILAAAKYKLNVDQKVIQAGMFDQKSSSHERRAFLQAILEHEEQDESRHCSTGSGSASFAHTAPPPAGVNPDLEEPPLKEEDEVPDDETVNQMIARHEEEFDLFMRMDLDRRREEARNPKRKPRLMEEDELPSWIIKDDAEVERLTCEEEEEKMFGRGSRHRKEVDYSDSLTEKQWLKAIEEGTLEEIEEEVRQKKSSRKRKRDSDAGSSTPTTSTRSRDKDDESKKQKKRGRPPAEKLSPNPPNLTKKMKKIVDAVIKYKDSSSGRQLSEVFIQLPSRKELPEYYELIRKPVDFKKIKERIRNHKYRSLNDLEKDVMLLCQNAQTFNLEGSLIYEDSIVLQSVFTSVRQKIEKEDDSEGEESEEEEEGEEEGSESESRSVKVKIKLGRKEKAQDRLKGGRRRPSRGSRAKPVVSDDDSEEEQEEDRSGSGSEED

Molecule	Dmax
Cc1ncsc1-c1ccc(CNC(=O)[C@@H]2C[C@@H](O)CN2C(=O)C(c2cc(OCCCN3CCC(c4cnc(N5CCN6c7cc(-c8ccccc8O)nnc7NC[C@H]6C5)nc4)CC3)no2)C(C)C)cc1 (single isomer, unassigned)	> 90%
C#Cc1ccc(CNC(=O)[C@@H]2C[C@@H](O)CN2C(=O)[C@@H](NC(=O)N2CC3(CC(N4CCC([C@H]5CC[C@H](N6CCc7[nH]c8nnc(-c9ccccc9O)cc8c7[C@H]6C)CC5)CC4)C3)C2)C(C)(C)C)cc1	< 50%
C#Cc1ccc(CNC(=O)[C@@H]2C[C@@H](O)CN2C(=O)[C@@H](NC(=O)N2CC3(CC(N4CCC(c5cnc(N6CCc7[nH]c8nnc(-c9ccccc9O)cc8c7[C@H]6C)nc5)CC4)C3)C2)C(C)(C)C)c(OCCCN(C)C)c1	70 to 90%
C#Cc1ccc(CNC(=O)[C@@H]2C[C@@H](O)CN2C(=O)[C@@H](NC(=O)N2CC3(CC(N4CCC(c5cnc(N6CCc7[nH]c8nnc(-c9ccccc9O)cc8c7[C@H]6C)nc5)CC4)C3)C2)C(C)(C)CCO)cc1	70 to 90%

----------
biological target: UniProtKB P51531; test: SMARCA2 Western blot degradation in MV4-11 cells; format: cell-based; set-up: SMARCA2/SMARCA4 protein degradation selectivity in MV4-11 cells; endogenous in cells; host or cells: MV4-11; settings: MV4-11, MV4-11 cells, 24 h; read-out: SMARCA2 MSD MV411 degradation 24 h: average Dmax %
Measured property: Dmax

Molecule	Reported
C#Cc1ccc(CNC(=O)[C@@H]2C[C@@H](O)CN2C(=O)[C@@H](NC(=O)N2CC3(CN(CC4CCN(c5cnc(N6CCc7[nH]c8nnc(-c9ccccc9O)cc8c7[C@H]6C)nc5)CC4)C3)C2)C(C)(C)C)cc1 [I-164]	70 to 90%
CC#Cc1ccc(CNC(=O)[C@@H]2C[C@@H](O)CN2C(=O)[C@@H](NC(=O)[C@H]2CCC3(CC2)C[C@H](N2CCC(c4cnc(N5CCN6c7cc(-c8ccccc8O)nnc7NC[C@H]6C5)nc4)CC2)C3)C(C)(C)C)cc1 (single isomer, unassigned) [I-103]	50 to 70%
C#Cc1ccc(CNC(=O)[C@@H]2C[C@@H](O)CN2C(=O)[C@@H](N(CCOC)C(=O)N2CC3(CC(N4CCC(c5cnc(N6CCc7[nH]c8nnc(-c9ccccc9O)cc8c7[C@H]6C)nc5)CC4)C3)C2)C(C)(C)C)cc1 [I-140]	< 50%
C#Cc1ccc(CNC(=O)[C@@H]2C[C@@H](O)CN2C(=O)[C@@H](NC(=O)N2CC3(CC(N4CCC(c5cnc(N6CCc7[nH]c8nnc(-c9ccccc9O)cc8c7[C@H]6C)nc5)CC4)C3)C2)C(C)(C)CCN2CCNCC2)cc1 [I-340]	< 50%

----------
target: SMARCA2 (Homo sapiens, UniProt P51531); test: SMARCA2 Western blot degradation in MV4-11 cells; assay type: cell-based; set-up: SMARCA2/SMARCA4 protein degradation selectivity in MV4-11 cells; endogenous in cells; host or cells: MV4-11; conditions: MV4-11, MV4-11 cells, 24 h; read-out: SMARCA2 MSD MV411 degradation 24 h: average Dmax %
Sequence (P51531 whole entry): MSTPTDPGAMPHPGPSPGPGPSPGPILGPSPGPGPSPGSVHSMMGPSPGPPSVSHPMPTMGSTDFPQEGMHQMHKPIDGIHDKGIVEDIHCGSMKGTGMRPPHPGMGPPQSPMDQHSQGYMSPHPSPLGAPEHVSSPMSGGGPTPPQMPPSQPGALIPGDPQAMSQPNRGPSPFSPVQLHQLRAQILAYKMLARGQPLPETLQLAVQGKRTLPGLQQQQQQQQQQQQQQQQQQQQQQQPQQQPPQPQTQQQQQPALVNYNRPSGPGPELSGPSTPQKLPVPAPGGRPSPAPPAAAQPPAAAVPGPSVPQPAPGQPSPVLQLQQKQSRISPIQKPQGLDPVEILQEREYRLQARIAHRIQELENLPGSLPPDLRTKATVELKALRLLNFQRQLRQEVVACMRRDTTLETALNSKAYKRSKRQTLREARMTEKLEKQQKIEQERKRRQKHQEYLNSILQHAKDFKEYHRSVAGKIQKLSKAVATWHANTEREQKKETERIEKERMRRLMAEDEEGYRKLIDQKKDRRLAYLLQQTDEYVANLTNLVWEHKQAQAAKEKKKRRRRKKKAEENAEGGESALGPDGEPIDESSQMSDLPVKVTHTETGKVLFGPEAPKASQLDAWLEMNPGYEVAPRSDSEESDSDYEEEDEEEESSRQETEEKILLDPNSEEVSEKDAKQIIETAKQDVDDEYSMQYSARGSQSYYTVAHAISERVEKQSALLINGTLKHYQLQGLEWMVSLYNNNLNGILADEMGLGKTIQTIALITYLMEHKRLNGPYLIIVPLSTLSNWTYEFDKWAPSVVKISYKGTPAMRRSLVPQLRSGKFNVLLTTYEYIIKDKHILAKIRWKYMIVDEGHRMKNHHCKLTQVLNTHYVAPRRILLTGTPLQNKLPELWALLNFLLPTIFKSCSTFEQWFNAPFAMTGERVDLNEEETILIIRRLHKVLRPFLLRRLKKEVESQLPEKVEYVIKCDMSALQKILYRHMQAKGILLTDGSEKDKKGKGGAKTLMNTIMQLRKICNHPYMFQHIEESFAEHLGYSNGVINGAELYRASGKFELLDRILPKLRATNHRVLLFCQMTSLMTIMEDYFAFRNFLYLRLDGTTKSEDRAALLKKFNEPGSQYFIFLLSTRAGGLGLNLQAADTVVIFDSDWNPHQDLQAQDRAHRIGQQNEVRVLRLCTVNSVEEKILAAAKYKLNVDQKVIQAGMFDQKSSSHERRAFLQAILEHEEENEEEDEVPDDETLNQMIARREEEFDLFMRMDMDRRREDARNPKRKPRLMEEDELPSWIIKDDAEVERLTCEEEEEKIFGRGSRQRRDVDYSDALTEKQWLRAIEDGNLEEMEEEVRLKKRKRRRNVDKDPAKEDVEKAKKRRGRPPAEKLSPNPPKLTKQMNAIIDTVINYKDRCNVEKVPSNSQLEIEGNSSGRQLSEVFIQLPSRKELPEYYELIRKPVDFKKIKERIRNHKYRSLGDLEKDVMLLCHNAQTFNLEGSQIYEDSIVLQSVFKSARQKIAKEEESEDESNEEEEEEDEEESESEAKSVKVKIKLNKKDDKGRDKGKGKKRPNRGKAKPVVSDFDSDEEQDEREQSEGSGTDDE
Measured property: Dmax

Compound	Measured property	Reported
C#Cc1ccc(CNC(=O)[C@@H]2C[C@@H](O)CN2C(=O)[C@@H](NC(=O)N2CCC[C@H](CN3CCC(N4CCC(N5CCN6c7cc(-c8ccccc8O)nnc7NC[C@H]6C5)CC4)CC3)C2)C(C)(C)C)cc1	Dmax	< 50%
C#Cc1ccc(CNC(=O)[C@@H]2C[C@@H](O)CN2C(=O)[C@@H](NC(=O)N2CCO[C@H](CN3CCC(N4CCC(N5CCN6c7cc(-c8ccccc8O)nnc7NC[C@H]6C5)CC4)CC3)C2)C(C)(C)C)cc1	Dmax	< 50%
C#Cc1ccc(CNC(=O)[C@@H]2C[C@@H](O)CN2C(=O)[C@@H](NC(=O)N2CCCC(N3CCC(c4cnc(N5CCN6c7cc(-c8ccccc8O)nnc7NC[C@H]6C5)nc4)CC3)C2)C(C)(C)C)cc1 (mixture of isomers)	Dmax	50 to 70%
CC(C)C(C(=O)N1C[C@H](O)C[C@H]1C(=O)N[C@@H](C)C#Cc1ccccc1)c1cc(OCCN2CCC(N3CCC(N4CCC(CN5CCN6c7cc(-c8ccccc8O)nnc7NC[C@H]6C5)CC4)CC3)CC2)no1 (stereo partly shown)	Dmax	< 50%
C#Cc1ccc(CNC(=O)[C@@H]2C[C@@H](O)CN2C(=O)[C@@H](NC(=O)N2CC3(CC(N4C[C@H]5CN(c6cnc(N7CCc8[nH]c9nnc(-c%10ccccc%10O)cc9c8[C@H]7C)nc6)C[C@H]5C4)C3)C2)C(C)(C)C)cc1	Dmax	50 to 70%
C#Cc1ccc(C2(NC(=O)[C@@H]3C[C@@H](O)CN3C(=O)[C@@H](NC(=O)[C@H]3CC4(C3)C[C@H](N3CCC(N5CCC(N6CCN7c8cc(-c9ccccc9O)nnc8NC[C@H]7C6)CC5)CC3)C4)C(C)(C)C)CC2)cc1 (single isomer, unassigned)	Dmax	70 to 90%
Cc1ncsc1-c1ccc(CNC(=O)[C@@H]2C[C@@H](O)CN2C(=O)[C@@H](NC(=O)[C@H]2CC[C@H](c3ccc(-c4cnc(N5CCN6c7cc(-c8ccccc8O)nnc7NC[C@H]6C5)nc4)cc3)CC2)C(C)(C)C)cc1	Dmax	70 to 90%
C#Cc1ccc(CNC(=O)[C@@H]2C[C@@H](O)CN2C(=O)[C@@H](NC(=O)N2CC3(CC(N4CCC(N5CCC(N6CCc7[nH]c8nnc(-c9ccccc9O)cc8c7[C@H]6C)CC5)CC4)C3)C2)C(C)(C)C)cc1 (single isomer, unassigned)	Dmax	70 to 90%
C#Cc1ccc(CNC(=O)[C@@H]2C[C@@H](O)CN2C(=O)[C@@H](NC(=O)N2CCN(C[C@H]3CC[C@H](N4CCC(N5CCc6[nH]c7nnc(-c8ccccc8O)cc7c6[C@H]5C)CC4)CC3)CC2)C(C)(C)C)cc1	Dmax	< 50%
C[C@H](NC(=O)[C@@H]1C[C@@H](O)CN1C(=O)[C@@H](NC(=O)[C@H]1CCC2(CC1)C[C@H](N1CCC(c3cnc(N4CCN5c6cc(-c7ccccc7O)nnc6NC[C@H]5C4)nc3)CC1)C2)C(C)(C)C)c1ccc(-c2ccnn2C)cc1 (single isomer, unassigned)	Dmax	> 90%
Cc1ncsc1-c1ccc(CNC(=O)[C@@H]2C[C@@H](O)CN2C(=O)[C@@H](NC(=O)[C@H]2CC3(CC[C@H](N4CCC(c5cnc(N6CCN7c8cc(-c9ccccc9O)nnc8NC[C@H]7C6)nc5)CC4)CC3)C2)C(C)(C)C)cc1 (single isomer, unassigned)	Dmax	> 90%
C#Cc1ccc(CNC(=O)[C@@H]2C[C@@H](O)CN2C(=O)[C@@H](NC(=O)N2CC3(CC(N4CCC(c5cnc(N6CCc7[nH]c8nnc(-c9ccccc9O)cc8c7[C@H]6C)nc5)CC4)C3)C2)C(C)(C)CCOCC(=O)O)cc1 (single isomer, unassigned)	Dmax	70 to 90%
Cc1ncsc1-c1ccc(CNC(=O)[C@@H]2C[C@@H](O)CN2C(=O)C(c2cc(N3CCC(CCN4CCC(c5cnc(N6CCc7[nH]c8nnc(-c9ccccc9O)cc8c7[C@@H]6C)nc5)CC4)CC3)no2)C(C)C)cc1 (single isomer, unassigned)	Dmax	70 to 90%
C#Cc1ccc(CNC(=O)[C@@H]2C[C@@H](O)CN2C(=O)[C@@H](NC(=O)N2CC3(CC(N4CC5(CC(N6CCC(N7CCc8[nH]c9nnc(-c%10ccccc%10O)cc9c8[C@H]7C)CC6)C5)C4)C3)C2)C(C)(C)C)cc1	Dmax	< 50%
C#Cc1ccc(CNC(=O)[C@@H]2C[C@@H](O)CN2C(=O)[C@@H](NC(=O)CN2CCC(N3CC4(CC(N5CCN6c7cc(-c8ccccc8O)nnc7NC[C@H]6C5)C4)C3)CC2)C(C)(C)C)cc1	Dmax	> 90%
C#Cc1ccc(CNC(=O)[C@@H]2C[C@@H](O)CN2C(=O)[C@@H](NC(=O)N2CC3(CC(N4CCC(c5cnc(N6CCc7[nH]c8nnc(-c9ccccc9O)cc8c7[C@H]6C)nc5)CC4)C3)C2)C(C)(C)C)c(OCCCN(C)C)c1	Dmax	70 to 90%

----------
biological target: SMARCA2 (Homo sapiens, UniProt P51531); experiment: SMARCA2 Western blot degradation in MV4-11 cells; type: cell-based; parameters: SMARCA2/SMARCA4 protein degradation selectivity in MV4-11 cells; endogenous in cells; host or cells: MV4-11; details: SMARCA2/4 selectivity, MV4-11 cells

Molecule	Selectivity in MV411
C#Cc1ccc(CNC(=O)[C@@H]2C[C@@H](O)CN2C(=O)[C@@H](NC(=O)N2CC3(CC(N4CCN([C@H]5CC[C@H](N6CCc7[nH]c8nnc(-c9ccccc9O)cc8c7[C@H]6C)CC5)CC4)C3)C2)C(C)(C)C)cc1	D (D (<10 fold))
Cc1ncsc1-c1ccc(CNC(=O)[C@@H]2C[C@@H](O)CN2C(=O)[C@@H](NC(=O)C2(F)CC2)C(C)(C)C)c(OCCCCN2CCC(c3ccnc(N4CCN5c6cc(-c7ccccc7O)nnc6NC[C@H]5C4)n3)CC2)c1 (single isomer, unassigned)	D (D (<10 fold))
